- testedSystem: human CB1 receptor (Homo sapiens)
- Construct: expressed in transfected cells; host or cells: HEK-293
- testMethodNotes: Radioligand displacement in human CB1 receptor-transfected cells (HEK-293)
- Format: binding
- conditionSummary: human CB1 transfected cells; 3H-WIN55212-2; Table 5, parallel synthesis analogs
measuredMetric: Max. Disp. %, 3H-WIN55212-2 (%)

Challenge: Look at this compound and give its reported Max. Disp. %, 3H-WIN55212-2. CC(C)=CCC/C(C)=C/CNC(=O)c1nn(-c2ccc(Cl)cc2Cl)c(-c2ccc(Cl)cc2)c1C
Response given: 78.3

1: CCCCCCCCCCCCCNC(=O)c1nn(-c2ccc(Cl)cc2Cl)c(-c2ccc(Cl)cc2)c1C
2: Cc1c(C(=O)NC(C)Cc2ccc(Cl)cc2)nn(-c2ccc(Cl)cc2Cl)c1-c1ccc(Cl)cc1 (stereo not shown)
Challenge: Of 1 and 2 , whose reported Max. Disp. %, 3H-WIN55212-2 is the larger number? Give the label under which the chosen entry appears.
Response given: 1

====

- testedSystem: CB1 receptor (Rattus norvegicus, UniProt P20272)
- Construct: Whole rat brains or dissected regions from live CD rats; tissue Charles River or Pel-Freez Biologicals; host or cells: whole rat brain (CD rats), P2 membrane
- Sequence (P20272 whole entry): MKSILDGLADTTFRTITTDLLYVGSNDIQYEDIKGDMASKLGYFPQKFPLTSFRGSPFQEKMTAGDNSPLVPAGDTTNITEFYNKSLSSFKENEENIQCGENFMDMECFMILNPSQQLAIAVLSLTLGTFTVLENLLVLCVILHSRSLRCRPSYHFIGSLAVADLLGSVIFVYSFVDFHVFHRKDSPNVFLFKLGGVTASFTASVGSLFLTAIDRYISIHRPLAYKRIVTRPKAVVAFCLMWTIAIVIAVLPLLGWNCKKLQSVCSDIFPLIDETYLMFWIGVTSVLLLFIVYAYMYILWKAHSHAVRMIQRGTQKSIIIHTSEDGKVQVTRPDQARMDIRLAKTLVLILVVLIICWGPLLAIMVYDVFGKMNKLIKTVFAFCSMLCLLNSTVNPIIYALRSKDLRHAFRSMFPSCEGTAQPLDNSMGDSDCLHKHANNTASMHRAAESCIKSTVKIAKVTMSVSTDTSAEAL
- testMethodNotes: Radioligand displacement in whole rat brain (CB1) membrane preparations
- Assay type: binding
- conditionSummary: whole rat brain membranes; radioligand 3H-CP55940; Tables 1 and 2
- Experimental: CB1 receptor affinity in rat brain. Methods—membrane preparation from brain. The methods for tissue preparation are essentially those described by Devane et al. (1988) as modified by Compton et al. (1993) and later by Thomas et al. (1998). […] Protein concentrations were determined by the method of Bradford (1976) using Coomassie brilliant blue dye (Bio-Rad, Richmond, Calif.) and BSA standards (bovine serum albumin, fatty acid free, Sigma Chemical Co., St. Louis, Mo.) prepared in assay buffer 3. […]
measuredMetric: Max. Disp. %, 3H-CP55940 (%)

Challenge: Quick one: Max. Disp. %, 3H-CP55940 of Cc1c(C(=O)NC(C)CO)nn(-c2ccc(Cl)cc2Cl)c1-c1ccc(Cl)cc1 (single isomer, unassigned) ?
Response given: 89.7

Challenge: Please look up its Max. Disp. %, 3H-CP55940: Cc1c(C(=O)NCCO)nn(-c2ccc(Cl)cc2Cl)c1-c1ccc(Cl)cc1
Response given: 73.2

Challenge: Data request, read-out Max. Disp. %, 3H-CP55940, for CCCCCCCCCNC(=O)c1nn(-c2ccc(Cl)cc2Cl)c(-c2ccc(Cl)cc2)c1C
Response given: 79.5

Challenge: Entry under review: Cc1c(C(=O)NCC(C)C)nn(-c2ccc(Cl)cc2Cl)c1-c1ccc(Cl)cc1 . Reported Max. Disp. %, 3H-CP55940?
Response given: 96.7

Challenge: Requested field: Max. Disp. %, 3H-CP55940. Item: CCCNC(=O)c1nn(-c2ccc(Cl)cc2Cl)c(-c2ccc(Cl)cc2)c1C [MF9725-55C]
Response given: 97.4

Challenge: I'd like to know its Max. Disp. %, 3H-CP55940. The compound in question is CCCCCCCNC(=O)c1nn(-c2ccc(Cl)cc2Cl)c(-c2ccc(Cl)cc2)c1C
Response given: 81.7

Challenge: Bench note: what Max. Disp. %, 3H-CP55940 did CCCCCNC(=O)c1nn(-c2ccc(Cl)cc2Cl)c(-c2ccc(Cl)cc2)c1C show?
Response given: 91.4

Challenge: Query: Max. Disp. %, 3H-CP55940; subject: CCCCCCNC(=O)c1nn(-c2ccc(Cl)cc2Cl)c(-c2ccc(Cl)cc2)c1C
Response given: 87.3

====

- testedSystem: human CB1 receptor (Homo sapiens, UniProt P21554)
- Construct: expressed in transfected cells; host or cells: HEK-293
- Sequence (P21554 whole entry): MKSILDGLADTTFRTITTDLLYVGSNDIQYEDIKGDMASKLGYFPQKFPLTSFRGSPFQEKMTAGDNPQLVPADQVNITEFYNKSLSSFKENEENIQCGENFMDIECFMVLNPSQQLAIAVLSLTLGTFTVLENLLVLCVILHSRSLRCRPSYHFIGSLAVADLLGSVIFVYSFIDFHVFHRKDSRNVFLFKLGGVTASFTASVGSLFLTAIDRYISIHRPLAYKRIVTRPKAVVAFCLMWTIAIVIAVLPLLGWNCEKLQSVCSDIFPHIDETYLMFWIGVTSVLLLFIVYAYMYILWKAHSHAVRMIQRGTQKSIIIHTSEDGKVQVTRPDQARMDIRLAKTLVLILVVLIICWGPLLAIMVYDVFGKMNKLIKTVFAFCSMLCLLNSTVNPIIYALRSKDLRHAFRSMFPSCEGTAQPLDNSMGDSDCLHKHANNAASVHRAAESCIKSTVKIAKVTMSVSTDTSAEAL
- testMethodNotes: Radioligand displacement in human CB1 receptor-transfected cells (HEK-293)
- Assay type: binding
Reported Max. Disp. %, 3H-CP55940 by item:
Express it in %; write the number only.

Worked examples, 3 compounds total:
Challenge: Recorded Max. Disp. %, 3H-CP55940 of CCCCCCCCNC(=O)c1nn(-c2ccc(Cl)cc2Cl)c(-c2ccc(Cl)cc2)c1C , please.
Response given: 70.6

Challenge: What measured Max. Disp. %, 3H-CP55940 goes with CCCCCC(C)NC(=O)c1nn(-c2ccc(Cl)cc2Cl)c(-c2ccc(Cl)cc2)c1C (centres unmarked) ?
Response given: 80.7

Challenge: Reported Max. Disp. %, 3H-CP55940 for Cc1c(C(=O)NC(C)CCCC(C)C)nn(-c2ccc(Cl)cc2Cl)c1-c1ccc(Cl)cc1 (centres unmarked) : what is it?
Response given: 82.5

***
Challenge: Query: Max. Disp. %, 3H-CP55940; subject: CCCCCCC(C)NC(=O)c1nn(-c2ccc(Cl)cc2Cl)c(-c2ccc(Cl)cc2)c1C (centres unmarked)
Response given: 79.5

Challenge: Which Max. Disp. %, 3H-CP55940 value is on record for CCCCCCCCCNC(=O)c1nn(-c2ccc(Cl)cc2Cl)c(-c2ccc(Cl)cc2)c1C ?
Response given: 68.8

====

- testedSystem: CB1 receptor (Rattus norvegicus)
- Construct: Whole rat brains or dissected regions from live CD rats; tissue Charles River or Pel-Freez Biologicals; host or cells: whole rat brain (CD rats), P2 membrane
- testMethodNotes: Radioligand displacement in whole rat brain (CB1) membrane preparations
- Format: binding
- conditionSummary: Ki, displacement of 3H-WIN55212-2, whole rat brain; 3H-WIN55212-2; Table 4, parallel synthesis analogs, n = 1, concentration assumes 100% yield
measuredMetric: Ki (µM)

Challenge: Find the recorded Ki belonging to COCC(C)NC(=O)c1nn(-c2ccc(Cl)cc2Cl)c(-c2ccc(Cl)cc2)c1C (stereo not shown) and report it.
Response given: 0.0226

A: CC(C)=CCC/C(C)=C/CNC(=O)c1nn(-c2ccc(Cl)cc2Cl)c(-c2ccc(Cl)cc2)c1C
B: COc1ccc(CCNC(=O)c2nn(-c3ccc(Cl)cc3Cl)c(-c3ccc(Cl)cc3)c2C)cc1
C: Cc1c(C(=O)N2CCc3ccccc3C2)nn(-c2ccc(Cl)cc2Cl)c1-c1ccc(Cl)cc1
Challenge: Ascending by Ki, please: list the molecules accordingly. Please list the labels according to the requested order.
Response given: B, A, C
(B: 0.0247 µM, A: 0.0405 µM, C: 0.152 µM)

====

- testedSystem: CB1 receptor (Rattus norvegicus)
- Construct: Whole rat brains or dissected regions from live CD rats; tissue Charles River or Pel-Freez Biologicals; host or cells: whole rat brain (CD rats), P2 membrane
- testMethodNotes: Radioligand displacement in whole rat brain (CB1) membrane preparations
- Format: binding
- conditionSummary: Ki, displacement of 3H-CP55940, whole rat brain; 3H-CP55940; Table 4, parallel synthesis analogs, n = 1, concentration assumes 100% yield
pKi: −log10 of the molar value.
measuredMetric: pKi

Challenge: Record request: pKi value, item Cc1c(C(=O)N2CCc3ccccc3C2)nn(-c2ccc(Cl)cc2Cl)c1-c1ccc(Cl)cc1
Response given: 6.71

Challenge: What value of pKi has been recorded for this entry: COCC(C)NC(=O)c1nn(-c2ccc(Cl)cc2Cl)c(-c2ccc(Cl)cc2)c1C (centres unmarked)
Response given: 7.19

Challenge: Entry Cc1c(C(=O)NCCc2ccc(O)cc2)nn(-c2ccc(Cl)cc2Cl)c1-c1ccc(Cl)cc1 has what pKi?
Response given: 7.15

A: Cc1c(C(=O)NC(C)Cc2ccc(Cl)cc2)nn(-c2ccc(Cl)cc2Cl)c1-c1ccc(Cl)cc1 (centres unmarked)
B: CCCCCCCCCCCCCNC(=O)c1nn(-c2ccc(Cl)cc2Cl)c(-c2ccc(Cl)cc2)c1C
Challenge: Decide: A or B , by lowest recorded pKi. Your choice should be expressed through its label.
Response given: B

====

- testedSystem: human CB1 receptor (Homo sapiens, UniProt P21554)
- Construct: expressed in transfected cells; host or cells: HEK-293
- testMethodNotes: Radioligand displacement in human CB1 receptor-transfected cells (HEK-293)
- Format: binding
- conditionSummary: Ki, displacement of 3H-CP55940, human CB1 transfected cells; radioligand 3H-CP55940; Table 3
measuredMetric: Ki (nM)

Here is how some compounds turned out for Ki.
Challenge: Entry Cc1c(C(=O)NC(C)C)nn(-c2ccc(Cl)cc2Cl)c1-c1ccc(Cl)cc1 : reported Ki = ?
Response given: 91

Challenge: So what's the measured Ki for this one? Cc1c(C(=O)NCC(C)C)nn(-c2ccc(Cl)cc2Cl)c1-c1ccc(Cl)cc1
Response given: 93.6

Challenge: Tell me the measured Ki of CCNC(=O)c1nn(-c2ccc(Cl)cc2Cl)c(-c2ccc(Cl)cc2)c1C [MF9725-54C] , please.
Response given: 137

Challenge: Return reported Ki; argument: CCCNC(=O)c1nn(-c2ccc(Cl)cc2Cl)c(-c2ccc(Cl)cc2)c1C [MF9725-55C]
Response given: 33.7

A: CCCCCCNC(=O)c1nn(-c2ccc(Cl)cc2Cl)c(-c2ccc(Cl)cc2)c1C
B: Cc1c(C(=O)NC2CCCCC2)nn(-c2ccc(Cl)cc2Cl)c1-c1ccc(Cl)cc1
C: CCCCNC(=O)c1nn(-c2ccc(Cl)cc2Cl)c(-c2ccc(Cl)cc2)c1C
Challenge: # rank_down: sort by Ki, max first Sort and list the labels as requested.
Response given: A, C, B

Data origin, for the record: patent US6825209B2
